# Assayed System: T1, recombinant human TfR-1, His-tagged (Sino Biological 11020-H07H) (human, UniProt P02786 89-760)
# T1 construct: bought; His-tagged; also called hTfR1; hTfR-1
# T1 sequence (P02786 89-760 limits assumed): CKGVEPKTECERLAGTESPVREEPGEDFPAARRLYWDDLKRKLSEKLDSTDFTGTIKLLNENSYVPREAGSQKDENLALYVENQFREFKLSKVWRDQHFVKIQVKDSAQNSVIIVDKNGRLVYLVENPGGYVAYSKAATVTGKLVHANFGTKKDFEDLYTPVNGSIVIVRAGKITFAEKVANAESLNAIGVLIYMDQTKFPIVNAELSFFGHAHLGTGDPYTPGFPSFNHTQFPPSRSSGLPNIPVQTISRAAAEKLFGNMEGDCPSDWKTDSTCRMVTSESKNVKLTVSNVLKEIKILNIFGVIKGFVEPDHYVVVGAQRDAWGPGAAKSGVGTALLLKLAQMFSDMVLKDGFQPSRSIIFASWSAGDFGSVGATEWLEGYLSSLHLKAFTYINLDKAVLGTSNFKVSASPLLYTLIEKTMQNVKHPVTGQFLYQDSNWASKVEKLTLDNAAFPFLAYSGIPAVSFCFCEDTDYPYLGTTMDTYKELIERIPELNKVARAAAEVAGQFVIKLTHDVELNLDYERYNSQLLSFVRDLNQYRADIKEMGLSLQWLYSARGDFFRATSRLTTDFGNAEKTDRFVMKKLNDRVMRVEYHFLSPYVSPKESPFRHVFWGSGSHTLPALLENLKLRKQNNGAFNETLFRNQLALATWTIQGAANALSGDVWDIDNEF
# Assay Remarks: SPR, His-captured TfR1
Measurement Label: koff (s⁻¹)

Clone H variant 10 VNAR-hFc (Fc fusion, not shown: a dimerising Fc or GST, also called clone H var; 10) ARVDQTPQTITKETGESLTINCVLRDSNCELSSTYWYRKKSGSTNEESISKGGRYVETVNSGSKSFSLRINDLVVEDSGTYRCNVQQFPSWFNGRYWCDVYGGGTAVTVNA	0.000269
Clone H VNAR-hFc fusion (Fc fusion, not shown: a dimerising Fc or GST, bivalent VNAR-Fc) ARVDQTPQTITKETGESLTINCVLRDSNCELSSTYWYRKKSGSTNEESISKGGRYVETVNSGSKSFSLRINDLVVEDSGTYRCNVQQFPSSSNGRYWCDVYGGGTAVTVNA	0.00183

(a) Clone H variant 3 VNAR-hFc (Fc fusion, not shown: a dimerising Fc or GST) ARVDQTPQTITKETGESLTINCVLRDSNCELSSTYWYRKKSGSTNEESISKGGRYVETVNSGSKSFSLRINDLVVEDSGTYRCNVQQFPSWGNGRYWCDVYGGGTAVTVNA
(b) Clone H variant 2 VNAR-hFc (Fc fusion, not shown: a dimerising Fc or GST) ARVDQTPQTITKETGESLTINCVLRDSNCELSSTYWYRKKSGSTNEESISKGGRYVETVNSGSKSFSLRINDLVVEDSGTYRCNVQQFPSSWPFRYWCDVYGGGTAVTVNA
Which item exceeds the other in koff, a or b ? Reply briefly: the label of your chosen item. b
